# TARGET: ex-LdtMt2 (LdtMt2; MT2594; product of gene Rv2518c) (Mycobacterium tuberculosis, UniProt O53223)
# ASSAY REMARKS: isothermal titration calorimetry, single-site model
pKd: −log10 of the molar value.
MEASUREMENT LABEL: pKd

[[record]]
structure_smiles = "C[C@@H](O)[C@H]1C(=O)N2C(C(=O)O)=C(SCCN=CN)C[C@H]12"
endpoint_value = 7.26

